Attribution: the C3SDB collision cross section collection

settings: [M+H]+; instrument: TW; calibrated with polyalanine and drug standards
reportedMetric: collision cross section (N2) (Å²)
// units = Å²; emit number, no label

{"compound": "NC(=O)c1cccnc1 [NIACINAMIDE]", "valueUnit": "Å²", "collision cross section (N2)": 121.7}
{"compound": "O=C(/C=C/c1ccc(O)c(O)c1)O[C@H](Cc1ccc(O)c(O)c1)C(=O)O [ROSMARINIC ACID]", "valueUnit": "Å²", "collision cross section (N2)": 169.2}
{"compound": "CCCCCCOc1ccccc1C(N)=O [EXALAMIDE]", "valueUnit": "Å²", "collision cross section (N2)": 154.6}
{"compound": "CC(=O)OCC(=O)[C@@]1(O)CC[C@H]2[C@@H]3CCC4=CC(=O)CC[C@]4(C)[C@H]3[C@@H](O)C[C@@]21C [HYDROCORTISONE ACETATE]", "valueUnit": "Å²", "collision cross section (N2)": 196.1}
{"compound": "N#C[C@H](O[C@@H]1O[C@H](CO[C@@H]2O[C@H](CO)[C@@H](O)[C@H](O)[C@H]2O)[C@@H](O)[C@H](O)[C@H]1O)c1ccccc1 [AMYGDALIN]", "valueUnit": "Å²", "collision cross section (N2)": 200.6}

-- ask What value of measured collision cross section (N2) is listed for CC(=O)OCC(=O)[C@@]1(O)CCC2C3CCC4=CC(=O)C=C[C@]4(C)[C@@]3(F)[C@@H](O)C[C@@]21C (some centres undefined) [ISOFLUPREDNONE ACETATE] ?
-- reply 194.7

-- ask Quick one: COC(=O)C[C@H]1C(C)(C)C(=O)[C@@H]2CC3=C4CC(=O)O[C@@H](c5ccoc5)[C@]4(C)CC[C@@H]3[C@@]1(C)C2=O [MEXICANOLIDE]
-- reply 203.9

-- ask Quick one: NCC1(CC(=O)O)CCCCC1 [GABAPENTIN]
-- reply 138.6

-- ask Quick one: O=C(O)c1ccccc1C(=O)Nc1ccc(S(=O)(=O)Nc2nccs2)cc1 [PHTHALYLSULFATHIAZOLE]
-- reply 194.9

-- ask Quick one: CC(=O)CC(c1ccccc1)c1c(O)c2ccccc2oc1=O (centres undefined) [WARFARIN]
-- reply 165.9

-- ask Quick one: CC[C@H]1OC(=O)C[C@@H](O)[C@H](C)[C@@H](O[C@@H]2O[C@H](C)[C@@H](O[C@H]3C[C@@](C)(O)[C@@H](O)[C@H](C)O3)[C@H](N(C)C)[C@H]2O)[C@@H](CC=O)C[C@@H](C)C(=O)/C=C/C(C)=C/[C@@H]1CO[C@@H]1O[C@H](C)[C@@H](O)[C@@H](OC)[C@H]1OC [TYLOSIN]
-- reply 307.8

-- ask Quick one: CCOC(=O)N1CCC(=C2c3ccc(Cl)cc3CCc3cccnc32)CC1 [LORATADINE]
-- reply 185.8

-- ask Quick one: O=C(NC(Cc1cc(=O)[nH]c2ccccc12)C(=O)O)c1ccc(Cl)cc1 (centres undefined) [REBAMIPIDE]
-- reply 185

-- ask Quick one: O=C(O)CCc1nc(-c2ccccc2)c(-c2ccccc2)o1 [OXAPROZIN]
-- reply 169.7

----------
settings: [M+H]+; instrument: DT; stepped-field
reportedMetric: collision cross section (N2) (Å²)
// units = Å²; emit number, no label

Solved cases below.
{"mol": "CCCC/C=C\\C/C=C\\CCCCCCCC(=O)O[C@H](COC(=O)CCCCCCCCCCCC)COP(=O)([O-])OCC[N+](C)(C)C", "collision cross section (N2) / Å²": 279.6}
{"mol": "CCCCC/C=C\\C/C=C\\CCCCCCCC(=O)OC[C@H](COP(=O)([O-])OCC[N+](C)(C)C)OC(=O)CCCCCCCCC/C=C\\CCCCCC", "collision cross section (N2) / Å²": 295.8}

Next item in the queue.
-- ask What value of measured collision cross section (N2) is listed for CCCCC/C=C\C/C=C\CCCCCCCCCC(=O)O[C@H](COC(=O)CCCCCCCCCCC)COP(=O)([O-])OCC[N+](C)(C)C ?
-- reply 287.8
